Data origin, for the record: paper PMC8230303

- Tested on: MRC-5 cells
- METHOD_SUMMARY: Inhibition of cell viability, colorimetric MTT assay
- Format: cell-based
- CONDITION_DESCRIPTION: Homo sapiens, MRC5, healthy lung fibroblasts, 72 h exposure, mean ± SD
- Experimental: Human breast adenocarcinoma cells MDA-MB-231, sensitive COLO-205 and multidrug resistant COLO-320 colorectal adenocarcinoma cells and normal human lung fibroblasts MRC-5 were obtained from ATCC. […] The cytotoxicity of the compounds was determined by colorimetric MTT assay. […] Optical densities were measured at 570 nm using the BioTek H1 Synergy (BioTek, Singapore) microplate reader. […]
PROPERTY_NAME: pIC50
Schema: pIC50 number; meaning minus log10 of the concentration expressed in molar units.

Query string: Look at this molecule and give its reported pIC50. CN(C)C(=S)NN=Cc1cc(COc2ccc3cc(C(=O)N4CCN(Cc5ccnc(C=NNC(=S)N(C)C)c5)CC4)c(=O)oc3c2)ccn1 [H2L^4]
Result string: 5.40

Query string: Look at this molecule and give its reported pIC50. COc1cccc2c1C(=O)c1c(O)c3c(c(O)c1C2=O)C[C@@](O)(C(=O)CO)C[C@@H]3O[C@H]1C[C@H](N)[C@H](O)[C@H](C)O1 [Doxorubicin, reference compound]
Result string: 5.28

Query string: Look at this molecule and give its reported pIC50. CN(C)C(=S)NN=Cc1cc(CN2CCN(C(=O)c3cc4ccc(O)cc4oc3=O)CC2)ccn1 [HL^1]
Result string: 4.39

Query string: Look at this molecule and give its reported pIC50. O=C(c1cc2ccc(O)cc2oc1=O)N1CCN(Cc2ccnc(C=NNC(=S)Nc3ccccc3)c2)CC1 [HL^2]
Result string: 4.27

* * *

- Test system: MDA-MB-231 cells
- METHOD_SUMMARY: Inhibition of cell viability, colorimetric MTT assay
- Type: cell-based
- CONDITION_DESCRIPTION: Homo sapiens, 72 h exposure, mean ± SD
PROPERTY_NAME: IC50 (µM)
Give just the number in µM; leave the unit off.

Query string: Look at this compound and give its reported IC50. CN(C)C(=S)NN=Cc1cc(CN2CCN(C(=O)c3cc4ccc(O)cc4oc3=O)CC2)ccn1 [HL^1]
Result string: 4.8

Query string: Look at this compound and give its reported IC50. O=C(c1cc2ccc(O)cc2oc1=O)N1CCN(Cc2ccnc(C=NNC(=S)Nc3ccccc3)c2)CC1 [HL^2]
Result string: 18

Query string: Look at this compound and give its reported IC50. CN(C)C(=S)NN=Cc1cc(COc2ccc3cc(C(=O)N4CCN(Cc5ccnc(C=NNC(=S)N(C)C)c5)CC4)c(=O)oc3c2)ccn1 [H2L^4]
Result string: 3

Query string: Look at this compound and give its reported IC50. Cc1cc(NCNN=Cc2cc(CN3CCN(C(=O)c4cc5ccc(O)cc5oc4=O)CC3)ccn2)cc(C)c1O [HL^3]
Result string: 11
